Where these numbers come from: paper PMC11173721

# IC50 values compiled below
Target: acetohydroxyacid synthase (AHAS) (Arabidopsis thaliana)
Sequence (P17597 56-670): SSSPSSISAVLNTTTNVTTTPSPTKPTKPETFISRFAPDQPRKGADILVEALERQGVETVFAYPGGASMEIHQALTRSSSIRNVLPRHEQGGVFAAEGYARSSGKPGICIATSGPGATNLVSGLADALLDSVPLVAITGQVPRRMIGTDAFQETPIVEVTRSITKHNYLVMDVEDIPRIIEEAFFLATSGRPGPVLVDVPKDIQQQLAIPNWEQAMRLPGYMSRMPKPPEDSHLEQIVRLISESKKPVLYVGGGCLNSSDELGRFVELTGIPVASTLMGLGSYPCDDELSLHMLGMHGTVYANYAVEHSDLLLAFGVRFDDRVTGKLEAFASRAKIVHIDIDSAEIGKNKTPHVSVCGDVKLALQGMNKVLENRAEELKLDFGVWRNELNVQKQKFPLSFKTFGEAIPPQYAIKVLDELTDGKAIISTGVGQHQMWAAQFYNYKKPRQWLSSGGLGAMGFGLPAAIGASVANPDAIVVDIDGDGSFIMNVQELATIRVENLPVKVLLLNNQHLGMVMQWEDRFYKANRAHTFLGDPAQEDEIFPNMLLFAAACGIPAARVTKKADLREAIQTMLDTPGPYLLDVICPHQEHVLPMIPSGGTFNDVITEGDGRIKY

{"columns": ["SMILES DATA", "IC50 [µM]"],
 "data": [
  ["COc1cc(OC)nc(Oc2ccccc2CNc2ccccc2-c2ccccc2)n1", 157],
  ["COc1cc(OC)nc(Oc2ccccc2CNc2ccc(-c3ccccc3)cc2)n1", 343],
  ["COc1cc(OC)nc(Oc2ccccc2CNc2cccc(-c3ccccc3)c2)n1", 189]
]}
